Measured inhibition at 10 µM, listed per entry for reference.
STUDY TARGET: RPS6KA3(Kin.Dom.1) (Homo sapiens)
Construct: RPS6KA3(Kin.Dom.1); purchased DiscoverX (KINOMEscan)
Sequence (P51812 1-397 limits assumed): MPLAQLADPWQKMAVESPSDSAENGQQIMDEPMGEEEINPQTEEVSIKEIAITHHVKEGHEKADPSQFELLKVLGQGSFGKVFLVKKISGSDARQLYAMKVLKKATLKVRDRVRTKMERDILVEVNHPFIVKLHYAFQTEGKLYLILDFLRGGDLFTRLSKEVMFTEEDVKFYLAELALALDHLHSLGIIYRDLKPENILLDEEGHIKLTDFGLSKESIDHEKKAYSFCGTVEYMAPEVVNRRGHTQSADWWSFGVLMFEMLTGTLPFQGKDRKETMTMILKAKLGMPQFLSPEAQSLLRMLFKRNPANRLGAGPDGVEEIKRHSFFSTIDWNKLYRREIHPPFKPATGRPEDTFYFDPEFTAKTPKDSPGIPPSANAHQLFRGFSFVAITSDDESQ
RUN DESCRIPTION: KINOMEscan competitive binding
ASSAY CONTEXT: n=1, read-out: Percent inhibition, RPS6KA3(Kin.Dom.1)

Sample records with inhibition at 10 µM:
{"MOLECULE SMILES": "Cc1ccc(O)cc1Nc1ccnc(Nc2cccc(C(N)=O)c2)n1", "PROPERTY LABEL": "inhibition at 10 µM", "READING": "0%"}
{"MOLECULE SMILES": "Fc1cccc(COc2ccc(Nc3ncnc4c3CN(CCN3CCOCC3)CC4)cc2Cl)c1", "PROPERTY LABEL": "inhibition at 10 µM", "READING": "0%"}

`Cc1ccc(O)cc1N(C)c1ccnc(Nc2cccc(S(N)(=O)=O)c2)n1` on RPS6KA3(Kin.Dom.1) (Homo sapiens) gives inhibition at 10 µM = 0%

`CN1CCN(c2ccc(Nc3nccc(-c4cnn5ncccc45)n3)cc2C#N)CC1` on RPS6KA3(Kin.Dom.1) (Homo sapiens) gives inhibition at 10 µM = 86%

`C[C@@H](Oc1cc(-c2cnc3ccccn23)sc1C(N)=O)c1ccccc1Cl` on RPS6KA3(Kin.Dom.1) (Homo sapiens) gives inhibition at 10 µM = 0%

`c1ccc(COc2cccc(-c3ccnc4[nH]ccc34)c2)cc1` on RPS6KA3(Kin.Dom.1) (Homo sapiens) gives inhibition at 10 µM = 0%

`COc1ccc(Nc2nccc(-c3cnn4ncccc34)n2)cc1` on RPS6KA3(Kin.Dom.1) (Homo sapiens) gives inhibition at 10 µM = 0%

`COc1cc(Nc2nccc(-c3sc(N)nc3-c3cccc(NC(=O)c4c(F)cccc4F)c3)n2)cc(OC)c1OC` on RPS6KA3(Kin.Dom.1) (Homo sapiens) gives inhibition at 10 µM = 99.8%

`Nc1ncc2c(-c3ccncc3)c[nH]c2n1` on RPS6KA3(Kin.Dom.1) (Homo sapiens) gives inhibition at 10 µM = 0%

`Clc1ccc(Nc2ncc(-c3ccccc3)s2)cc1` on RPS6KA3(Kin.Dom.1) (Homo sapiens) gives inhibition at 10 µM = 0%

----------
STUDY TARGET: PIM2 (Homo sapiens, UniProt Q9P1W9)
Construct: purchased DiscoverX (KINOMEscan)
Sequence (Q9P1W9 whole entry): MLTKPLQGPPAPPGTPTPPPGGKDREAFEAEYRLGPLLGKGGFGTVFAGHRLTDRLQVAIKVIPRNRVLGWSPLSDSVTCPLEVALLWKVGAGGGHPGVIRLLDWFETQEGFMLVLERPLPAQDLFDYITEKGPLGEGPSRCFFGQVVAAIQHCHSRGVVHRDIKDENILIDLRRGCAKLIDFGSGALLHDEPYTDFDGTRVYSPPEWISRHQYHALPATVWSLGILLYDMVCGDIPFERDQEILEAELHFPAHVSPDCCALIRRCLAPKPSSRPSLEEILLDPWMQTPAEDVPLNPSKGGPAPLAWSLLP
RUN DESCRIPTION: KINOMEscan competitive binding
ASSAY CONTEXT: n=1, read-out: Percent inhibition, PIM2
PROPERTY LABEL: inhibition at 10 µM
Answer format reminder: number followed by unit.

`c1ccc(COc2cccc(-c3ccnc4[nH]ccc34)c2)cc1` on PIM2 (Homo sapiens, UniProt Q9P1W9) gives inhibition at 10 µM = 0%

`Fc1cccc(COc2ccc(Nc3ncnc4c3CN(CCN3CCOCC3)CC4)cc2Cl)c1` on PIM2 (Homo sapiens, UniProt Q9P1W9) gives inhibition at 10 µM = 0%

`COc1ccc(Nc2nccc(-c3cnn4ncccc34)n2)cc1` on PIM2 (Homo sapiens, UniProt Q9P1W9) gives inhibition at 10 µM = 81.1%

`COc1cc(Nc2nccc(-c3sc(N)nc3-c3cccc(NC(=O)c4c(F)cccc4F)c3)n2)cc(OC)c1OC` on PIM2 (Homo sapiens, UniProt Q9P1W9) gives inhibition at 10 µM = 0%
